system name: BACE1 in primary mouse cortical neurons (mouse, UniProt P56818 46-501)
Sequence (P56818 46-501): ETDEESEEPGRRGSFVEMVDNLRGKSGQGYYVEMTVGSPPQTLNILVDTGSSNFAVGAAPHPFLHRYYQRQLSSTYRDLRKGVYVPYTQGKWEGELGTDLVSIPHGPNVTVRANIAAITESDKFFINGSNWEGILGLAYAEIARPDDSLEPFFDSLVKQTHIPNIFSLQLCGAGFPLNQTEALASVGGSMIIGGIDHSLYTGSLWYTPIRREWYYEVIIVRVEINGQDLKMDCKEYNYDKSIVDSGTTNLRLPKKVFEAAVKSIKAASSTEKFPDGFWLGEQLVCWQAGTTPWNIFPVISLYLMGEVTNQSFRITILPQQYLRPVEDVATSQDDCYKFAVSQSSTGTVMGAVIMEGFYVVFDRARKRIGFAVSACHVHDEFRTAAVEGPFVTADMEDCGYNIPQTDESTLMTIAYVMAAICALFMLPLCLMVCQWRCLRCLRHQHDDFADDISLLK
assay comment: cell-based or functional assay
Hi! Could you tag entries with IC50, Abeta x-40 in mouse cortical neurons below 7 nM as MET, and those at or above as NOT MET? Much appreciated.

Example entries begin here.
binder	label value
5890 (antibody, V domains shown, anti-BACE1 IgG) VH: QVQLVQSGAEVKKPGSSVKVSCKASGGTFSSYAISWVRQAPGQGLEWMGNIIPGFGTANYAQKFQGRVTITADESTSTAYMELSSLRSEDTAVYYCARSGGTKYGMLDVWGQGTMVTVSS VL: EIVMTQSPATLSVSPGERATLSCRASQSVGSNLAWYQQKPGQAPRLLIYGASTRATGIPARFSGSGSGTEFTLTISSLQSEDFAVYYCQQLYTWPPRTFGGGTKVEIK	NOT MET
5644 (antibody, V domains shown, anti-BACE1 IgG) VH: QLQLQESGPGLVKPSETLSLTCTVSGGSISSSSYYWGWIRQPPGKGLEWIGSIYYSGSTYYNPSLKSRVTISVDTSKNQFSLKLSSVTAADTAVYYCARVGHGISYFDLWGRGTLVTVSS VL: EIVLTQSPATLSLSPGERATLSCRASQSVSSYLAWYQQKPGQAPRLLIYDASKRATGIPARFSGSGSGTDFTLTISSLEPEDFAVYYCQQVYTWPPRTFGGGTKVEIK	NOT MET
5536 (antibody, V domains shown, anti-BACE1 IgG) VH: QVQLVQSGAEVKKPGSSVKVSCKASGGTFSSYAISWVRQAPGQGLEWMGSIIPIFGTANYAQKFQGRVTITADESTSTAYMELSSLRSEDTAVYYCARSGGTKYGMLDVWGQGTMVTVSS VL: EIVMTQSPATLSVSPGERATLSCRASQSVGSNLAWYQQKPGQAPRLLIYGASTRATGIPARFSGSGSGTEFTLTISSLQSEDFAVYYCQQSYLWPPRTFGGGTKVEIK	NOT MET

Now turn to the next binder.
Lookup: In plain terms, does 5888 (antibody, V domains shown, anti-BACE1 IgG) VH: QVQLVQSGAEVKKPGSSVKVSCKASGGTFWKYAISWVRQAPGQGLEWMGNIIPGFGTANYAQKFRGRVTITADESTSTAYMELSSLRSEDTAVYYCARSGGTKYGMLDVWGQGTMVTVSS VL: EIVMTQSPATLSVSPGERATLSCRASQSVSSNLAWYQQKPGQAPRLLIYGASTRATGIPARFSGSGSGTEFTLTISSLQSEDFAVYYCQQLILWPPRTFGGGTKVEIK come in under 7 nM for IC50, Abeta x-40 in mouse cortical neurons?
Found: MET
